# Species: Rattus norvegicus
# test-name: Open TG-GATES - Regimen: Single
# Type: toxicity, organism-based, Sprague-Dawley
# Design: regimen Single, gender Male, age 6 weeks
# measurement-parameters: in vivo, po, 0 mg/kg, 6 h, tissue Blood, route gavage, dose level Control
Below, each of the compounds is paired with its reported APTT value.
readout-kind: APTT

INSERT INTO assay_data (compound, observed_result) VALUES
  ('CN1C(=O)OC(C)(C)C1=O', '18.9 s'),
  ('C[C@](N)(Cc1ccc(O)c(O)c1)C(=O)O', '17 s'),
  ('Nc1nc(N)c2nc(-c3ccccc3)c(N)nc2n1', '16.8 s'),
  ('C#C[C@]1(O)CC[C@H]2[C@@H]3CCc4cc(O)ccc4[C@H]3CC[C@@]21C', '16.2 s'),
  ('CCc1oc2ccccc2c1C(=O)c1cc(I)c(O)c(I)c1', '17.7 s'),
  ('CC(C)C(=O)Nc1ccc([N+](=O)[O-])c(C(F)(F)F)c1 [FLUTAMIDE]', '18.8 s'),
  ('Oc1ncnc2[nH]ncc12', '16.3 s'),
  ('CCSCC[C@H](N)C(=O)O', '18.9 s'),
  ('O=C(N[C@H](CO)[C@H](O)c1ccc([N+](=O)[O-])cc1)C(Cl)Cl', '17.1 s'),
  ('CC(=O)Oc1cc(C(C)C)c(OCCN(C)C)cc1C', '20.5 s');

Cited source for all entries: ChEMBL document CHEMBL3885861
